The measurements presented in this section are drawn from patent US20120219615A1.

Biological target: TLR8 (Homo sapiens)
Construct: assessed in peripheral blood mononuclear cells (PBMCs) from 15 healthy donors; endogenous in cells; host or cells: PBMCs from 15 healthy donors
Sequence (Q9NR97 27-1041): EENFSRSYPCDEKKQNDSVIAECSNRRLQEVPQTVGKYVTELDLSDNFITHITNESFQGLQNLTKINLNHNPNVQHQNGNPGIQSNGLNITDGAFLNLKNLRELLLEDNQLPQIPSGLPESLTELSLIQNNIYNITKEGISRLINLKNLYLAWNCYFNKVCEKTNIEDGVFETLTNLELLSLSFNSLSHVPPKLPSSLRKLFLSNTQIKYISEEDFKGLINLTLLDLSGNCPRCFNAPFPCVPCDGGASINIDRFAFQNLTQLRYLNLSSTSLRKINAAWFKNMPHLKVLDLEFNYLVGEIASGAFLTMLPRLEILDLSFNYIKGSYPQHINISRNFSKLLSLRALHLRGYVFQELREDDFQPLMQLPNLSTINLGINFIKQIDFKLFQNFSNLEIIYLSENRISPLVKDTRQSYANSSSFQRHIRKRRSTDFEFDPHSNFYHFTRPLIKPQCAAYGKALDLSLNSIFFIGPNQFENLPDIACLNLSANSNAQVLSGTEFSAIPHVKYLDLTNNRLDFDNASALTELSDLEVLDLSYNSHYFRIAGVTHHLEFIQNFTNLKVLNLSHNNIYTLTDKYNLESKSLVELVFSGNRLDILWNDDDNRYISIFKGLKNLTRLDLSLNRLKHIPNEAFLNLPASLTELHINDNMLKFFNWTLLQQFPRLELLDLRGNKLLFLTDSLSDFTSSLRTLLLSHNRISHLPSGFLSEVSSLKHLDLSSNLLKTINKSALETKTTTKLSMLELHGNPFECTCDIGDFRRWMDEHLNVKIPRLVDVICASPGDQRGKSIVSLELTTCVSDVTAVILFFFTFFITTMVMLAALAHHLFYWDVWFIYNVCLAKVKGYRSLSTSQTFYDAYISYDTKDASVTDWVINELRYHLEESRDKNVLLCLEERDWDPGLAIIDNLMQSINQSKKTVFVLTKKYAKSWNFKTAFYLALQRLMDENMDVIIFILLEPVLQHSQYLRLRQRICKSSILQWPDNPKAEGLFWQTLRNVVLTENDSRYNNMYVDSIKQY
Assay: HEK293 cells transfected with TLR8 and NF-κB driven reporter gene
Type: cell-based
Conditions: HEK293 transfectants
Method: The half-maximal effective concentration (EC50) for VTX-2337 activation of TLR8 and TLR7 was assessed in peripheral blood mononuclear cells (PBMCs) from 15 healthy donors and also in HEK293 cells transfected with TLR8 or TLR7 and an NF-κB driven reporter gene. […] Also it was observed that VTX-2337 had no activity on TLR2, TLR3, TLR4, TLR5, TLR6, or TLR9 at concentrations up to 25 μM.

>  <structure-smiles-string>
CCCN(CCC)C(=O)C1=Cc2ccc(-c3ccc(C(=O)N4CCCC4)cc3)cc2N=C(N)C1

>  <EC50>
70 nM

$$$$
